- System: winter barley (Hordeum vulgare)
- Assay notes: Test B postemergence plant response
- Format: in vivo
- Experimental parameters: 62 g ai/ha, postemergence; 0 is no effect, 100 is complete control; 13 to 15 days
- From the text: […] Treated plants and controls were maintained in a greenhouse for 13 to 15 days, after which time all treated plants were visually evaluated and compared to controls. […]
Result type: Barley plant response rating (0 to 100 scale)
Provide a numeric answer; units are not to be included.

Use these answered entries as a reference point.
>>> readout_number("COCCCn1c(-c2cccc(C)c2)ncc(C(=O)C2=C(O)CCCC2=O)c1=O")
0
>>> readout_number("O=C1CCCC(O)=C1C(=O)c1cnc(-c2ccccc2Br)n(-c2ccccc2)c1=O")
0
>>> readout_number("Cc1ccc(F)cc1-n1c(-c2cccc(Cl)c2)ncc(C(=O)C2=C(O)CCCC2=O)c1=O")
15

Below: the item to evaluate.
Log: winter barley (Hordeum vulgare), compound `COCCn1c(-c2ccccc2)ncc(C(=O)C2=C(O)CCCC2=O)c1=O` , Barley plant response rating (0 to 100 scale) = 10

====

- Test system: large crabgrass (Digitaria sanguinalis)
- Assay notes: Test B pre-/postemergence plant response
- Format: in vivo
- Experimental parameters: Preemergence, 62 g ai/ha; scale 0 to 100 (0 no effect, 100 complete control)
Result type: Plant response rating, Crabgrass, Large

For orientation, consider the following solved cases.
>>> result("CCCCc1ncc(C(=O)C2=C(O)CCCC2=O)c(=O)n1-c1cccc(C)c1")
85
>>> result("COCCn1c(-c2cc(F)cc(F)c2)ncc(C(=O)C2=C(O)CCCC2=O)c1=O")
100
>>> result("CCCn1c(-c2cccs2)ncc(C(=O)C2=C(O)CCCC2=O)c1=O")
98

Field Plant response rating, Crabgrass, Large (entry `O=C1CCCC(O)=C1C(=O)c1cnc(-c2ccccc2)n(-c2cccc(Br)c2)c1=O` ) reads 90

Short answer for `Cc1c(Cl)cccc1-n1c(-c2ccccc2)ncc(C(=O)C2=C(O)CCCC2=O)c1=O` : Plant response rating, Crabgrass, Large was 98

Given item `Cc1cc(C)cc(-n2c(-c3ccccc3)ncc(C(=O)C3=C(O)CCCC3=O)c2=O)c1` , the value recorded as its Plant response rating, Crabgrass, Large is 98

====

- Tested on: johnsongrass (Sorghum halepense)
- Assay notes: Test B pre-/postemergence plant response
- Format: in vivo
- Experimental parameters: Postemergence, 125 g ai/ha; scale 0 to 100 (0 no effect, 100 complete control)
Parameter: Plant response rating, Johnsongrass. Scope: all listed entries.
Write the number on its own, no unit after it.

As a guide, the following entries are already answered.
>>> readout_number("CCCn1c(-c2cccc(Cl)c2)ncc(C(=O)C2=C(O)CCCC2=O)c1=O [Compound 190]")
75
>>> readout_number("Cc1cc(-n2c(-c3cccc(F)c3)ncc(C(=O)C3=C(O)CCCC3=O)c2=O)ccc1F [Compound 191]")
100
>>> readout_number("Cc1ccc(F)cc1-n1c(-c2cccc(Cl)c2)ncc(C(=O)C2=C(O)CCCC2=O)c1=O [Compound 157]")
100
>>> readout_number("COCCn1c(-c2ccsc2)ncc(C(=O)C2=C(O)C3CCC(C3)C2=O)c1=O (stereo not drawn) [Compound 228]")
95
>>> readout_number("CC1(C)CC(=O)C(C(=O)c2cnc(-c3ccccc3)n(-c3ccccc3)c2=O)=C(O)C1 [Compound 225]")
75

O=C(C1=C(O)C2CCC(C2)C1=O)c1cnc(-c2ccsc2)n(CC2CCCO2)c1=O (stereo not drawn) [Compound 229] has a reported Plant response rating, Johnsongrass of 100

# Plant response rating, Johnsongrass of COCCn1c(-c2cccc(F)c2)ncc(C(=O)C2=C(O)C3CCC(C3)C2=O)c1=O (stereo not drawn) [Compound 235] = 100

response.value for COCCn1c(-c2cccc(F)c2)ncc(C(=O)C2=C(O)CCCC2=O)c1=O [Compound 123] (field: Plant response rating, Johnsongrass) = 75

Consider O=C1CCCC(O)=C1C(=O)c1cnc(-c2ccccc2)n(C2CCSCC2)c1=O [Compound 164] . Its measured Plant response rating, Johnsongrass is 95

====

# maps each entry to its Plant response rating, Oat, Wild
- System: wild oat (Avena fatua)
- Assay notes: Test B pre-/postemergence plant response
- Format: in vivo
- Experimental parameters: 31 g ai/ha, postemergence; scale 0 to 100, 0 is no effect, 100 is complete control
- Text: […] Treated plants and controls were maintained in a greenhouse for 13 to 15 days, after which time all treated plants were visually evaluated and compared to controls. […]

Worked cases, answers included:
>>> result("Cn1c(-c2ccccc2)ncc(C(=O)C2=C(O)CCCC2=O)c1=O [Compound 55]")
0
>>> result("Cc1ccc(-c2ncc(C(=O)C3=C(O)CCCC3=O)c(=O)n2-c2ccccc2)cc1 [Compound 80]")
20
>>> result("O=C1CCCC(O)=C1C(=O)c1cnc(-c2ccccc2Br)n(-c2ccccc2)c1=O [Compound 71]")
0
>>> result("CCCCn1c(-c2cc(F)cc(F)c2)ncc(C(=O)C2=C(O)CCCC2=O)c1=O [Compound 121]")
60
>>> result("CC(C)n1c(-c2ccccc2)ncc(C(=O)C2=C(O)CCCC2=O)c1=O [Compound 95]")
0

Next:
Sure, the documented Plant response rating, Oat, Wild for O=C1CCCC(O)=C1C(=O)c1cnc(-c2cccc(Cl)c2)n(-c2ccc(Cl)cc2)c1=O [Compound 64] is 60

====

- System: velvetleaf (Abutilon theophrasti)
- Assay notes: Test A pre-/postemergence plant response
- Type: in vivo
- Experimental parameters: Preemergence, 500 g ai/ha; visual injury, 0 to 100 scale (0 no effect, 100 complete control), approx. ten days
Labelling: Plant response rating, Velvetleaf reported below 90 becomes class 1; at or above becomes class 0.

Study these solved cases before continuing.
>>> qualitative_label("COCCn1c(-c2cccc(F)c2)ncc(C(=O)C2=C(O)CCCC2=O)c1=O [Compound 123]")
"class 0"
>>> qualitative_label("CCCCn1c(-c2cccc(Br)c2)ncc(C(=O)C2=C(O)CCCC2=O)c1=O [Compound 138]")
"class 1"
>>> qualitative_label("O=C1CCCC(O)=C1C(=O)c1cnc(-c2cccc(Cl)c2)n(CC2CCCO2)c1=O (stereo not drawn) [Compound 142]")
"class 1"
>>> qualitative_label("CCCCn1c(-c2cccc(C)c2)ncc(C(=O)C2=C(O)CCCC2=O)c1=O [Compound 116]")
"class 1"
>>> qualitative_label("O=C1CCCC(O)=C1C(=O)c1cnc(-c2ccco2)n(-c2ccccc2)c1=O [Compound 76]")
"class 1"
>>> qualitative_label("O=C1CCCC(O)=C1C(=O)c1cnc(-c2ccccc2)n(-c2ccccc2F)c1=O [Compound 26]")
"class 0"

Query string: Quick check: does Cc1cc(-n2c(-c3cccc(Cl)c3)ncc(C(=O)C3=C(O)CCCC3=O)c2=O)ccc1F [Compound 133] have Plant response rating, Velvetleaf under 90?
Result string: class 0

Query string: Just wondering, is Plant response rating, Velvetleaf of CCCn1c(-c2ccco2)ncc(C(=O)C2=C(O)CCCC2=O)c1=O [Compound 110] below 90?
Result string: class 1

====

- Tested on: ducksalad (Heteranthera limosa)
- Assay notes: Test B flooded paddy test
- Format: in vivo
- Experimental parameters: Flood, 31 g ai/ha; scale 0 to 100 (0 no effect, 100 complete control)
Outcome label depends on Ducksalad plant response rating relative to 20: at/above gives Yes, below gives No.

Worked set:
>>> qualitative_label("O=C1CCCC(O)=C1C(=O)c1cnc(-c2cccc(C(F)(F)F)c2)n(C2CCCCC2)c1=O")
"No"
>>> qualitative_label("CCn1c(-c2ccccc2)ncc(C(=O)C2=C(O)C3CCC(C3)C2=O)c1=O (centres unmarked)")
"No"
>>> qualitative_label("O=C1CCCC(O)=C1C(=O)c1cnc(-c2ccccc2)n(C2CC[S+]([O-])CC2)c1=O (mixture of isomers)")
"No"

Query string: Does the reported Ducksalad plant response rating for `CCCn1c(-c2cc(C)cc(C)c2)ncc(C(=O)C2=C(O)CCCC2=O)c1=O` fall at or above the 20 mark?
Result string: No

Query string: State whether the measured Ducksalad plant response rating reaches 20, counting equality as reaching it, for COCCn1c(-c2cc(F)cc(F)c2)ncc(C(=O)C2=C(O)C3CCC(C3)C2=O)c1=O (centres unmarked)
Result string: No

Query string: // inclusive: Ducksalad plant response rating at least 20? input: `CCCn1c(-c2ccc(F)cc2)ncc(C(=O)C2=C(O)CCCC2=O)c1=O`
Result string: Yes

Query string: Evaluate `Cc1cc(-n2c(-c3cccc(F)c3)ncc(C(=O)C3=C(O)CCCC3=O)c2=O)ccc1F` : Ducksalad plant response rating at minimum 20?
Result string: Yes

Query string: Hi, just wondering whether O=C(C1=C(O)C2CCC(C2)C1=O)c1cnc(-c2ccsc2)n(CC2CCCO2)c1=O (centres unmarked) shows Ducksalad plant response rating of 20 or higher.
Result string: No

Query string: Identify whether the reported Ducksalad plant response rating of the following compound is 20 or greater: `Cc1ccc(Cl)cc1-n1c(-c2cccc(Br)c2)ncc(C(=O)C2=C(O)CCCC2=O)c1=O`
Result string: Yes

Query string: Would you say `CCc1ccc(-n2c(-c3cccc(Br)c3)ncc(C(=O)C3=C(O)CCCC3=O)c2=O)cc1` shows Ducksalad plant response rating at minimum 20?
Result string: Yes
